Source: patent US20210254056A1

tested on: hepatocytes; assay: RNA-seq of hepatocytes treated with Phase III failure compounds; conditions: gene CROT; hepatocytes
readout.name: RNA-seq results: CROT expression
// no unit string in output, number only

Known RNA-seq results: CROT expression results, listed for orientation:
| structure.smiles | endpoint.result |
| --- | --- |
| C=CCNC1=C2C[C@@H](C)C[C@H](OC)[C@H](O)[C@@H](C)/C=C(\C)[C@H](OC(N)=O)[C@@H](OC)/C=C\C=C(/C)C(=O)NC(=CC1=O)C2=O | 0.23 |
| COc1cc2c(Oc3ccc4[nH]c(C)cc4c3F)ncnc2cc1OCCCN1CCCC1 | 0.55 |

Prompt: Would you please give the reported RNA-seq results: CROT expression of Cn1cc(C2=C(c3cn(C4CCN(Cc5ccccn5)CC4)c4ccccc34)C(=O)NC2=O)c2ccccc21 with hepatocytes?
Completion: −0.21

---

tested on: hepatocytes; test: RNA-seq of hepatocytes treated with Phase III failure compounds; settings: gene SETBP1; hepatocytes
readout.name: RNA-seq results: SETBP1
Just the number, please, no unit attached.

Example compounds with recorded RNA-seq results: SETBP1:
| compound | target.or.system | readout.name | endpoint.result |
| --- | --- | --- | --- |
| COc1cc(Nc2ncc(F)c(Nc3ccc4c(n3)N(COP(=O)(O)O)C(=O)C(C)(C)O4)n2)cc(OC)c1OC | hepatocytes | RNA-seq results: SETBP1 | −0.46 |
| CCC(CC)[C@H](NC(C)=O)[C@@H]1[C@H](O)[C@@H](C(=O)O)C[C@H]1NC(=N)N.O.O.O [peramivir (trihydrate), peramivir] | hepatocytes | RNA-seq results: SETBP1 | 0.05 |
| COc1cc2nccc(Oc3ccc(NC(=O)Nc4cc(C)on4)c(Cl)c3)c2cc1OC | hepatocytes | RNA-seq results: SETBP1 | −0.38 |

Prompt: # lookup: hepatocytes RNA-seq results: SETBP1, key = Cn1cnc2c(F)c(Nc3ccc(Br)cc3Cl)c(C(=O)NOCCO)cc21
Completion: 0.22

---

test system: hepatocytes; experiment: RNA-seq of hepatocytes treated with Phase III failure compounds; settings: gene SLC19A1; hepatocytes
Tag: 1 if measured RNA-seq results: SLC19A1 is not below -0.3, -1 if it is.

| molecule | group |
| --- | --- |
| COc1cc2c(Oc3ccc4[nH]c(C)cc4c3F)ncnc2cc1OCCCN1CCCC1 | -1 |
| Cn1cnc2c(F)c(Nc3ccc(Br)cc3Cl)c(C(=O)NOCCO)cc21 | -1 |
| COc1cc(Nc2ncc(F)c(Nc3ccc4c(n3)N(COP(=O)(O)O)C(=O)C(C)(C)O4)n2)cc(OC)c1OC | -1 |
| CCOC(=O)N1c2ccc(C(F)(F)F)cc2[C@@H](N(Cc2cc(C(F)(F)F)cc(C(F)(F)F)c2)C(=O)OC)C[C@H]1CC | 1 |
| CCC(CC)[C@H](NC(C)=O)[C@@H]1[C@H](O)[C@@H](C(=O)O)C[C@H]1NC(=N)N.O.O.O [peramivir (trihydrate), peramivir] | 1 |

Prompt: Decide: RNA-seq results: SLC19A1 of CCN(CC)CCN(Cc1ccc(-c2ccc(C(F)(F)F)cc2)cc1)C(=O)Cn1c(SCc2ccc(F)cc2)nc(=O)c2c1CCC2 >= -0.3?
Completion: 1

Prompt: Threshold query (RNA-seq results: SLC19A1 >= -0.3) on COc1cc2nccc(Oc3ccc(NC(=O)Nc4cc(C)on4)c(Cl)c3)c2cc1OC
Completion: -1
